Tested on: SW480 (G12V) cells
test-method-notes: Cell viability assay (CELLTITER-GLO), SW480 cells
Type: cell-based
condition-notes: Homo sapiens, 72 h, Inhibition of cancerous cells, 3 days incubation, luminescence
measured-endpoint: IC50 (µM)

Use the examples below as a reference point.
compound=CNCc1ccccc1-c1csc([C@H](C)Nc2nc(C)nc3cc(OCCCCCCC(=O)N4CCCCC4)c(OC)cc23)c1 scale_unit=µM endpoint_result=0.41
compound=COc1cc2c(N[C@H](C)c3cccc(Br)c3)nc(C)nc2cc1OCCCCc1ccncc1 scale_unit=µM endpoint_result=1
compound=CNCc1ccccc1-c1csc([C@H](C)Nc2nc(C)nc3cc(OCCNC(=O)CC45CC6CC(CC(C6)C4)C5)c(OC)cc23)c1 scale_unit=µM endpoint_result=0.61

[a] COc1cc2c(N[C@H](C)c3cccc(Br)c3)nc(C)nc2cc1OCCCCCCCN1CCC2(CCNCC2)CC1
[b] COc1cc2c(N[C@H](C)c3cccc(Br)c3)nc(C)nc2cc1OCCCCCCC(=O)N1CCCCC1
[c] CNCc1ccccc1-c1csc([C@H](C)Nc2nc(C)nc3cc(OCCCCCCCN4CCN(C(C)=O)CC4)c(OC)cc23)c1
[d] CNCc1ccccc1-c1csc([C@@H](C)Nc2nc(C)nc3cc(OCCCCCCCC4CCC(c5ccccc5)CC4)c(OC)cc23)c1 (stereo partly drawn)
Input line: Rank the 4 compounds: largest IC50 first, smallest last. // ordering of labels required in reply
Output line: a, b, c, d
